Kindly supply the reported Human NPR1 Amax (% of ANP) values for the records listed here.
# testedTarget: human NPR1 (Homo sapiens)
# Construct: host or cells: CHO-K1
# Sequence (P16066 33-1061): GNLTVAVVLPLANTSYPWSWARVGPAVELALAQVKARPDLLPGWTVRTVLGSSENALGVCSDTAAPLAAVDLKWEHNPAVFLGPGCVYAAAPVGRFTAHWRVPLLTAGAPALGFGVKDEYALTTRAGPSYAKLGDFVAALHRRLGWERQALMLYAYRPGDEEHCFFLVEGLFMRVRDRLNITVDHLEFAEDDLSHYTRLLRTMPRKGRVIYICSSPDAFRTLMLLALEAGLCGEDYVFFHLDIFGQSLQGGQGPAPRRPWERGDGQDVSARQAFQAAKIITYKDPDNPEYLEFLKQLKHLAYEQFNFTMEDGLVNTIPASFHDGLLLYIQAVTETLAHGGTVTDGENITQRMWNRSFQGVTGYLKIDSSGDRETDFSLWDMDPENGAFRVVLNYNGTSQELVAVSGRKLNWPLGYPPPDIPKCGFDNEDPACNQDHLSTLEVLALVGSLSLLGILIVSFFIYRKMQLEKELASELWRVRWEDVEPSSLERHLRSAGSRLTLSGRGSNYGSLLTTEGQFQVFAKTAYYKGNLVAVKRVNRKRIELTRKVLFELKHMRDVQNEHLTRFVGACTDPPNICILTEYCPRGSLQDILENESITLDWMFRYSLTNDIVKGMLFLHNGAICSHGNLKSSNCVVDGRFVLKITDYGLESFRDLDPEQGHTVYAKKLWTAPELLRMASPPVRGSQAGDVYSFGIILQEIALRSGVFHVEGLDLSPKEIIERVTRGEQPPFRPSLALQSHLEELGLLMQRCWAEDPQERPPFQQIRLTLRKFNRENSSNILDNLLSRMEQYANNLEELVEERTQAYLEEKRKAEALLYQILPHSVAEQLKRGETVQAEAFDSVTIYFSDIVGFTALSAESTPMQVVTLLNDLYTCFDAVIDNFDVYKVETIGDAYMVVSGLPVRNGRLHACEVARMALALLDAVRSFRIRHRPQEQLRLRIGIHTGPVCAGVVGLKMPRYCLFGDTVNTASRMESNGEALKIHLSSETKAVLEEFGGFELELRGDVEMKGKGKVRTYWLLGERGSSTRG
# assayInfo: Cellular cGMP production assay, human NPR1 expressing CHO-K1 cells (CisBio HTRF)
# Assay type: cell-based
# experimentalParameters: maximum cGMP production as percentage of the maximum cGMP produced with ANP

Value (Human NPR1 Amax (% of ANP), human NPR1 (Homo sapiens)) for record CC[C@H]([C@H]1CC[C@H](C(=O)O)CC1)N(C)c1nc2c(c(N[C@@H](CN3C4CCCC3CC(O)C4)c3ccccc3)n1)C[C@H](c1ccccc1)CC2 (some centres unmarked) = 90.394 % of ANP

CC[C@@H](N(C)c1nc2c(c(N[C@@H](CN3C4CCCC3CCC4)c3cnn(C)c3)n1)C[C@H](c1ccccc1F)CC2)C12CC(C(=O)O)(C1)C2 on human NPR1 (Homo sapiens) gives Human NPR1 Amax (% of ANP) = 96.843 % of ANP

Tested on human NPR1 (Homo sapiens), the item CC[C@H]([C@H]1CC[C@H](C(=O)O)CC1)N(C)c1nc2c(c(N[C@@H](CN3CCCCC3)c3cnn(CC(F)(F)F)c3)n1)C[C@H](c1ccccc1)CC2 showed Human NPR1 Amax (% of ANP) equal to 112.087 % of ANP

Per the reported human NPR1 (Homo sapiens) data, CC[C@H]([C@H]1CC[C@H](C(=O)O)CC1)N(C)c1nc2c(c(N[C@@H](CN3CCCC(C)(F)C3)c3cnn(C)c3)n1)C[C@H](c1ccccc1)CC2 (some centres unmarked) has Human NPR1 Amax (% of ANP) of 114.314 % of ANP

Recorded Human NPR1 Amax (% of ANP) for CC[C@H]([C@H]1CC[C@H](C(=O)O)CC1)N(C)c1nc2c(c(N[C@@H](CN3CCC[C@H](COC)C3)c3cnn(C)c3)n1)C[C@H](c1ccccc1)CC2 on human NPR1 (Homo sapiens) was 98.117 % of ANP

Lab note: compound CC[C@H]([C@H]1CC[C@H](C(=O)O)CC1)N(C)c1nc2c(c(N[C@@H](CN3CCC[C@H](O)C3)c3cnn(CC)c3)n1)C[C@H](c1cccc(F)c1)CC2 tested on human NPR1 (Homo sapiens); recorded Human NPR1 Amax (% of ANP) was 103.903 % of ANP

Given the compound CC[C@H]([C@H]1CC[C@H](C(=O)O)CC1)N(C)c1nc2c(c(N[C@@H](CN3CCCCC3)c3cnn(C4CC4)c3)n1)C[C@H](c1ccccc1)CC2 and test system human NPR1 (Homo sapiens), the measured Human NPR1 Amax (% of ANP) is 107.286 % of ANP

Human NPR1 Amax (% of ANP) on human NPR1 (Homo sapiens) for CC[C@H]([C@H]1CC[C@H](C(=O)O)CC1)N(C)c1nc2c(c(N[C@@H](CN3CCC[C@](O)(CC)C3)c3cnn(C)c3)n1)C[C@H](c1ccccc1)CC2 is 112.78 % of ANP

Observed Human NPR1 Amax (% of ANP) on human NPR1 (Homo sapiens), entry CC[C@@H](Nc1nc2c(c(N[C@@H](CN3CCCCC3)c3cnn(CC)c3)n1)C[C@@H](c1cccc(F)c1)CC2)[C@H]1CC[C@H](C(=O)O)CC1 , equals 93.357 % of ANP

Assay human NPR1 (Homo sapiens), sample CC[C@@H](N(C)c1nc2c(c(N[C@@H](CN3CCCCCC3)c3cnn(C)c3)n1)C[C@H](c1cccc(F)c1)CC2)C12CC(C(=O)O)(C1)C2 , Human NPR1 Amax (% of ANP) read: 93.788 % of ANP

Short answer on human NPR1 (Homo sapiens) for CC[C@H]([C@H]1CC[C@H](C(=O)O)CC1)N(C)c1nc2c(c(N[C@@H](CN3CCC[C@H](CF)C3)c3cnn(C)c3)n1)C[C@H](c1cccc(F)c1)CC2 , Human NPR1 Amax (% of ANP): 100.504 % of ANP

Provenance of the data: patent US12129246B1
